system: Pseudomonas aeruginosa CSJ 1853; assay: in vitro antibacterial activity, agar plate dilution method (MIC); type: cell-based; settings: CSJ1853, read-out: Antimicrobial spectrum MIC
Exam item: assign satisfied to entries whose MIC is below 0.5 µg/mL and not satisfied to entries at or above 0.5 µg/mL. Note that a value of exactly 0.5 µg/mL receives not satisfied.

Illustrative cases are given below, each with its answer.
Challenge: # strict comparison: is reported MIC < 0.5 µg/mL? input = Cc1c(-c2ccc(CN)o2)ccn2c(=O)c(C(=O)O)cc(C3CC3)c12 [Example 113]
Response given: not satisfied

Challenge: # strict comparison: is reported MIC < 0.5 µg/mL? input = Cc1c(-c2cccc(CN3CCNCC3)c2)ccn2c(=O)c(C(=O)O)cc(C3CC3)c12 [Example 119]
Response given: not satisfied

Challenge: # strict comparison: is reported MIC < 0.5 µg/mL? input = Cc1c(-c2ccc(N)c(F)c2)ccn2c(=O)c(C(=O)O)cc(C3CC3)c12 [Example 97]
Response given: satisfied

Challenge: # strict comparison: is reported MIC < 0.5 µg/mL? input = COc1ccc(-c2ccn3c(=O)c(C(=O)O)cc(C4CC4)c3c2C)cn1 [Example 32]
Response given: not satisfied

***
Challenge: # strict comparison: is reported MIC < 0.5 µg/mL? input = Cc1c(-c2cccc(CN(C)C)c2)ccn2c(=O)c(C(=O)O)cc(C3CC3)c12 [Example 117]
Response given: not satisfied

Challenge: # strict comparison: is reported MIC < 0.5 µg/mL? input = Cc1c(-c2cccc(N)c2)ccn2c(=O)c(C(=O)O)cc(C3CC3)c12 [Example 26]
Response given: satisfied

Challenge: # strict comparison: is reported MIC < 0.5 µg/mL? input = CC(=NO)c1ccc(-c2ccn3c(=O)c(C(=O)O)cc(C4CC4)c3c2C)cc1 [Example 38]
Response given: not satisfied

Challenge: # strict comparison: is reported MIC < 0.5 µg/mL? input = CCOC(=O)c1cc(C2CC2)c2c(C)c(-c3cc(F)c(CN)s3)ccn2c1=O [Example 111]
Response given: satisfied

Challenge: # strict comparison: is reported MIC < 0.5 µg/mL? input = Cc1c(-c2ccc(NCCO)cc2)ccn2c(=O)c(C(=O)O)cc(C3CC3)c12 [Example 46]
Response given: not satisfied

Challenge: # strict comparison: is reported MIC < 0.5 µg/mL? input = CC(=O)c1ccc(-c2ccn3c(=O)c(C(=O)O)cc(C4CC4)c3c2C)cc1 [Example 28]
Response given: not satisfied

###

tested on: Bacteroides thetaiotaomicron ATCC 29741; assay: in vitro antibacterial activity on anaerobic bacteria (MIC); format: cell-based; details: ATCC29741; Bacteroides thetaiotaomicron ATCC 29741, anaerobic; read-out: Antimicrobial spectrum MIC
MEASURE_NAME: MIC (µg/mL)
Note: unit µg/mL is implicit; provide only the numeric part.

Past entries and their recorded results:
Challenge: GET MIC where system = Bacteroides thetaiotaomicron ATCC 29741 and item = `Cc1ccc(-c2ccn3c(=O)c(C(=O)O)cc(C4CC4)c3c2C)cc1`
Response given: 1

Challenge: GET MIC where system = Bacteroides thetaiotaomicron ATCC 29741 and item = `COc1ccc(-c2ccn3c(=O)c(C(=O)O)cc(C4CC4)c3c2C)cc1CN`
Response given: 4

Challenge: GET MIC where system = Bacteroides thetaiotaomicron ATCC 29741 and item = `Cc1c(-c2ccc(N)nc2)ccn2c(=O)c(C(=O)O)cc(C3CC3)c12`
Response given: 1

Challenge: GET MIC where system = Bacteroides thetaiotaomicron ATCC 29741 and item = `Cc1c(-c2cccc(N)c2)ccn2c(=O)c(C(=O)O)cc(C3CC3)c12`
Response given: 0.25

Challenge: GET MIC where system = Bacteroides thetaiotaomicron ATCC 29741 and item = `Cc1c(-c2ccc(NCCO)cc2)ccn2c(=O)c(C(=O)O)cc(C3CC3)c12`
Response given: 0.25

***
Challenge: GET MIC where system = Bacteroides thetaiotaomicron ATCC 29741 and item = `CC(=O)c1ccc(-c2ccn3c(=O)c(C(=O)O)cc(C4CC4)c3c2C)cc1`
Response given: 0.25

Challenge: GET MIC where system = Bacteroides thetaiotaomicron ATCC 29741 and item = `Cc1c(-c2cccc(CN3CCNCC3)c2)ccn2c(=O)c(C(=O)O)cc(C3CC3)c12`
Response given: 2

Challenge: GET MIC where system = Bacteroides thetaiotaomicron ATCC 29741 and item = `COc1ccc(-c2ccn3c(=O)c(C(=O)O)cc(C4CC4)c3c2C)cn1`
Response given: 0.25

###

Tested on: Streptococcus pneumoniae IID 553
Assay: in vitro antibacterial activity, agar plate dilution method (MIC)
Format: cell-based
Settings: IID553, read-out: Antimicrobial spectrum MIC
Description: The in vitro antibacterial activities of the compounds provided by the present invention were tested by a standard method of Chemotherapy Society of Japan, i.e. an agar plate dilution method disclosed in CHEMOTHERAPY Vol. 29, pages 76–79, 1981, and the activities of them on anaerobic bacteria were tested by a method disclosed in CHEMOTHERAPY Vol. 27, 559–590, 1979. The results were shown in terms of the minimum inhibition concentration (MIC, μg/ml) for the growth of the bacteria.
MEASURE_NAME: MIC (µg/mL)
Note: unit µg/mL is implicit; provide only the numeric part.

Past entries and their recorded results:
Challenge: Let me know recorded MIC for `Cc1c(-c2cccc(CN(C)C)c2)ccn2c(=O)c(C(=O)O)cc(C3CC3)c12` , thanks.
Response given: 0.5

Challenge: Let me know recorded MIC for `Cc1ccc(-c2ccn3c(=O)c(C(=O)O)cc(C4CC4)c3c2C)cc1` , thanks.
Response given: 0.5

Challenge: Let me know recorded MIC for `Cc1c(-c2cccc(N)c2)ccn2c(=O)c(C(=O)O)cc(C3CC3)c12` , thanks.
Response given: 0.25

Challenge: Let me know recorded MIC for `CC(=O)c1ccc(-c2ccn3c(=O)c(C(=O)O)cc(C4CC4)c3c2C)cc1` , thanks.
Response given: 0.25

Challenge: Let me know recorded MIC for `Cc1c(-c2ccc(CN)cc2)ccn2c(=O)c(C(=O)O)cc(C3CC3)c12` , thanks.
Response given: 0.125

Challenge: Let me know recorded MIC for `CCOC(=O)c1cc(C2CC2)c2c(C)c(-c3cc(F)c(CN)s3)ccn2c1=O` , thanks.
Response given: 0.125

Challenge: Let me know recorded MIC for `Cc1c(-c2ccc(N)cc2)ccn2c(=O)c(C(=O)O)cc(C3CC3)c12` , thanks.
Response given: 0.125

Challenge: Let me know recorded MIC for `CC(=NO)c1ccc(-c2ccn3c(=O)c(C(=O)O)cc(C4CC4)c3c2C)cc1` , thanks.
Response given: 0.125

Challenge: Let me know recorded MIC for `Cc1c(-c2ccc(NCCO)cc2)ccn2c(=O)c(C(=O)O)cc(C3CC3)c12` , thanks.
Response given: 0.125

Now turn to the next compound.
Challenge: Let me know recorded MIC for `Cc1c(-c2ccc(N)nc2)ccn2c(=O)c(C(=O)O)cc(C3CC3)c12` , thanks.
Response given: 0.5

###

Below are compounds with their MIC as measured on Streptococcus pneumoniae IID 553.
Note: unit µg/mL is implicit; provide only the numeric part.

Past entries and their recorded results:
Challenge: GET MIC where system = Streptococcus pneumoniae IID 553 and item = `COc1ccc(-c2ccn3c(=O)c(C(=O)O)cc(C4CC4)c3c2C)cn1`
Response given: 0.5

Challenge: GET MIC where system = Streptococcus pneumoniae IID 553 and item = C[C@H]1COc2c(N3CCN(C)CC3)c(F)cc3c(=O)c(C(=O)O)cn1c23 [Levofloxacin, reference compound]
Response given: 0.5

Challenge: GET MIC where system = Streptococcus pneumoniae IID 553 and item = `COc1ccc(-c2ccn3c(=O)c(C(=O)O)cc(C4CC4)c3c2C)cc1CN`
Response given: 0.031

Challenge: GET MIC where system = Streptococcus pneumoniae IID 553 and item = `Cc1ccc(-c2ccn3c(=O)c(C(=O)O)cc(C4CC4)c3c2C)cc1N`
Response given: 1

Challenge: GET MIC where system = Streptococcus pneumoniae IID 553 and item = `Cc1c(-c2ccc(N)c(F)c2)ccn2c(=O)c(C(=O)O)cc(C3CC3)c12`
Response given: 0.25

Challenge: GET MIC where system = Streptococcus pneumoniae IID 553 and item = `Cc1c(-c2ccc(C#N)cc2)ccn2c(=O)c(C(=O)O)cc(C3CC3)c12`
Response given: 0.5

Challenge: GET MIC where system = Streptococcus pneumoniae IID 553 and item = `Cc1c(-c2cccc(CN3CCNCC3)c2)ccn2c(=O)c(C(=O)O)cc(C3CC3)c12`
Response given: 0.5

***
Challenge: GET MIC where system = Streptococcus pneumoniae IID 553 and item = `Cc1c(-c2ccc(CN)o2)ccn2c(=O)c(C(=O)O)cc(C3CC3)c12`
Response given: 0.5
